Test system: KB V1 cells
Assay: Reversal of multidrug resistance (fold decrease of anticancer drug IC50), KB V1
Type: cell-based, human
Conditions: KB V1, 4 μM test compound
Property Name: Reversing parameter: fold decrease of IC50 of Puromycin (fold)

a. COc1ccc(C(=O)O[C@@H]2[C@@H](OC(=O)c3ccc(OC)c(OC)c3)c3c(ccc4ccc(=O)oc34)OC2(C)C)cc1OC (racemic) [trans-DMDBK]
b. COc1ccc(C(=O)O[C@@H]2c3c(ccc4ccc(=O)oc34)OC(C)(C)[C@@H]2OC(=O)c2ccc(OC)c(OC)c2)cc1OC (racemic) [cis-DMDBK]
c. COc1ccc(/C=C/C(=O)O[C@@H]2[C@@H](OC(=O)/C=C/c3ccc(OC)c(OC)c3)c3c(ccc4ccc(=O)oc34)OC2(C)C)cc1OC (racemic) [trans-DMDCK]
d. COc1ccc(/C=C/C(=O)O[C@@H]2c3c(ccc4ccc(=O)oc34)OC(C)(C)[C@@H]2OC(=O)/C=C/c2ccc(OC)c(OC)c2)cc1OC (racemic) [cis-DMDCK]
Lookup: # rank_down: sort by Reversing parameter: fold decrease of IC50 of Puromycin, max first Give the labels in the order specified.
Found: d, b, c, a

* * *

System: K562-DR cells
Assay: Reversal of multidrug resistance (fold decrease of anticancer drug IC50), K562-DR
Type: cell-based, human
Settings: 4 μM test compound
Property Name: Reversing parameter: fold decrease of IC50 of Puromycin (fold)

Molecule | Numeric Readout
COc1ccc(C(=O)O[C@@H]2c3c(ccc4ccc(=O)oc34)OC(C)(C)[C@@H]2OC(=O)c2ccc(OC)c(OC)c2)cc1OC (racemic) [cis-DMDBK] | 21.8
COc1ccc(/C=C/C(=O)O[C@@H]2c3c(ccc4ccc(=O)oc34)OC(C)(C)[C@@H]2OC(=O)/C=C/c2ccc(OC)c(OC)c2)cc1OC (racemic) [cis-DMDCK] | 38.8

a. COc1ccc(/C=C/C(=O)O[C@@H]2[C@@H](OC(=O)/C=C/c3ccc(OC)c(OC)c3)c3c(ccc4ccc(=O)oc34)OC2(C)C)cc1OC (racemic) [trans-DMDCK]
b. COc1ccc(C(=O)O[C@@H]2[C@@H](OC(=O)c3ccc(OC)c(OC)c3)c3c(ccc4ccc(=O)oc34)OC2(C)C)cc1OC (racemic) [trans-DMDBK]
Lookup: Which gives the smaller Reversing parameter: fold decrease of IC50 of Puromycin number: a or b ? Label of pick, please.
Found: b
(b: 6.7 fold, a: 31.1 fold)

* * *

Each item that follows carries a reported Cell cycle distribution, SubG1.
Test system: HepG2-DR cells
Assay: Cell cycle distribution by flow cytometry (doxorubicin-induced G2/M arrest), HepG2-DR
Format: cell-based, human
Settings: HepG2-DR, 4 μM alone, 48 h
Give a bare numeral; the unit % is implied.

Compound | Cell cycle distribution, SubG1 [%]
COc1ccc(/C=C/C(=O)O[C@@H]2[C@@H](OC(=O)/C=C/c3ccc(OC)c(OC)c3)c3c(ccc4ccc(=O)oc34)OC2(C)C)cc1OC (racemic) [trans-DMDCK] | 2.07
COc1ccc(C(=O)O[C@@H]2c3c(ccc4ccc(=O)oc34)OC(C)(C)[C@@H]2OC(=O)c2ccc(OC)c(OC)c2)cc1OC (racemic) [cis-DMDBK] | 2.27
COc1ccc(/C=C/C(=O)O[C@@H]2c3c(ccc4ccc(=O)oc34)OC(C)(C)[C@@H]2OC(=O)/C=C/c2ccc(OC)c(OC)c2)cc1OC (racemic) [cis-DMDCK] | 2.25

Lookup: State the recorded Cell cycle distribution, SubG1 for this entry: COc1ccc(C(=O)O[C@@H]2[C@@H](OC(=O)c3ccc(OC)c(OC)c3)c3c(ccc4ccc(=O)oc34)OC2(C)C)cc1OC (racemic) [trans-DMDBK]
Found: 1.33

* * *

Test system: HepG2-DR cells
Assay: Cell cycle distribution by flow cytometry (doxorubicin-induced G2/M arrest), HepG2-DR
Type: cell-based, human
Settings: HepG2-DR, 1 μM doxorubicin + 1 μM test compound, 48 h
Each item that follows carries a reported Cell cycle distribution, G0/G1.
Give a bare numeral; the unit % is implied.

Lookup: State the recorded Cell cycle distribution, G0/G1 for this entry: COc1ccc(C(=O)O[C@@H]2[C@@H](OC(=O)c3ccc(OC)c(OC)c3)c3c(ccc4ccc(=O)oc34)OC2(C)C)cc1OC (racemic) [trans-DMDBK]
Found: 34.60

Lookup: State the recorded Cell cycle distribution, G0/G1 for this entry: COc1ccc(/C=C/C(=O)O[C@@H]2c3c(ccc4ccc(=O)oc34)OC(C)(C)[C@@H]2OC(=O)/C=C/c2ccc(OC)c(OC)c2)cc1OC (racemic) [cis-DMDCK]
Found: 4.39

Lookup: State the recorded Cell cycle distribution, G0/G1 for this entry: COc1ccc(C(=O)O[C@@H]2c3c(ccc4ccc(=O)oc34)OC(C)(C)[C@@H]2OC(=O)c2ccc(OC)c(OC)c2)cc1OC (racemic) [cis-DMDBK]
Found: 13.52

Lookup: State the recorded Cell cycle distribution, G0/G1 for this entry: COc1ccc(/C=C/C(=O)O[C@@H]2[C@@H](OC(=O)/C=C/c3ccc(OC)c(OC)c3)c3c(ccc4ccc(=O)oc34)OC2(C)C)cc1OC (racemic) [trans-DMDCK]
Found: 34.29

* * *

System: K562-DR cells
Assay: Reversal of multidrug resistance (fold decrease of anticancer drug IC50), K562-DR
Type: cell-based, human
Settings: 4 μM test compound
From the text: Cells and cell culture: cell lines used in the experiments are human hepatoma cell line (HepG2), human leukemia cell line (K562), human epidermoid carcinoma cell line (KB-3-1) and their multidrug resistant sublines HepG2-DR, K562-DR. and KB V1. […] Each growth inhibition experiment must be repeated three times and results are expressed as mean±standard deviation (SD). […]
Property Name: Reversing parameter: fold decrease of IC50 of Vinblastine (fold)

I. COc1ccc(/C=C/C(=O)O[C@@H]2c3c(ccc4ccc(=O)oc34)OC(C)(C)[C@@H]2OC(=O)/C=C/c2ccc(OC)c(OC)c2)cc1OC (racemic) [cis-DMDCK]
II. COc1ccc(C(=O)O[C@@H]2c3c(ccc4ccc(=O)oc34)OC(C)(C)[C@@H]2OC(=O)c2ccc(OC)c(OC)c2)cc1OC (racemic) [cis-DMDBK]
III. COc1ccc(C(=O)O[C@@H]2[C@@H](OC(=O)c3ccc(OC)c(OC)c3)c3c(ccc4ccc(=O)oc34)OC2(C)C)cc1OC (racemic) [trans-DMDBK]
IV. COc1ccc(/C=C/C(=O)O[C@@H]2[C@@H](OC(=O)/C=C/c3ccc(OC)c(OC)c3)c3c(ccc4ccc(=O)oc34)OC2(C)C)cc1OC (racemic) [trans-DMDCK]
Lookup: # rank_down: sort by Reversing parameter: fold decrease of IC50 of Vinblastine, max first Give the labels in the order specified.
Found: I, II, IV, III
(I: 138.7 fold, II: 75.6 fold, IV: 31.6 fold, III: 11.0 fold)

* * *

Test system: K562-DR cells
Experiment: MTT growth inhibition assay, K562-DR
Format: cell-based, human
Details: IC50 K562-DR / IC50 K562
Property Name: Resistant ratio
Quick one: just the number, no unit, thanks!

// below: answered compounds
Compound | Property Name | Numeric Readout
COc1ccc(C(=O)O[C@@H]2c3c(ccc4ccc(=O)oc34)OC(C)(C)[C@@H]2OC(=O)c2ccc(OC)c(OC)c2)cc1OC (racemic) [cis-DMDBK] | Resistant ratio | 0.91
CC[C@]1(O)C[C@@H]2CN(CCc3c([nH]c4ccccc34)[C@@](C(=O)OC)(c3cc4c(cc3OC)N(C)[C@H]3[C@@](O)(C(=O)OC)[C@H](OC(C)=O)[C@]5(CC)C=CCN6CC[C@]43[C@@H]65)C2)C1 [Vinblastine] | Resistant ratio | 227
COc1cccc2c1C(=O)c1c(O)c3c(c(O)c1C2=O)C[C@@](O)(C(=O)CO)C[C@@H]3O[C@H]1C[C@H](N)[C@H](O)[C@H](C)O1 [Doxorubicin, reference compound] | Resistant ratio | 129
COc1ccc(C(=O)O[C@@H]2[C@@H](OC(=O)c3ccc(OC)c(OC)c3)c3c(ccc4ccc(=O)oc34)OC2(C)C)cc1OC (racemic) [trans-DMDBK] | Resistant ratio | 1.50
CC(=O)O[C@H]1C(=O)[C@@]2(C)[C@H]([C@H](OC(=O)c3ccccc3)[C@]3(O)C[C@H](OC(=O)[C@H](O)[C@@H](NC(=O)c4ccccc4)c4ccccc4)C(C)=C1C3(C)C)[C@]1(OC(C)=O)CO[C@@H]1C[C@@H]2O [Paclitaxel] | Resistant ratio | 5417
COc1ccc(C[C@H](N)C(=O)N[C@H]2[C@@H](O)[C@H](n3cnc4c(N(C)C)ncnc43)O[C@@H]2CO)cc1 [Puromycin] | Resistant ratio | 122
COc1ccc(/C=C/C(=O)O[C@@H]2[C@@H](OC(=O)/C=C/c3ccc(OC)c(OC)c3)c3c(ccc4ccc(=O)oc34)OC2(C)C)cc1OC (racemic) [trans-DMDCK] | Resistant ratio | 1.42

Now for another entry.
Lookup: Request: Resistant ratio, test system K562-DR cells, entry COc1ccc(/C=C/C(=O)O[C@@H]2c3c(ccc4ccc(=O)oc34)OC(C)(C)[C@@H]2OC(=O)/C=C/c2ccc(OC)c(OC)c2)cc1OC (racemic) [cis-DMDCK]
Found: 1.29
